- Test Name: Partition coefficient (logP)
- Test Parameters: octanol/water
# label = 1 if logP < 5 else 0

# example entries with known answers
1) O=[N+]([O-])c1ccc2ccc3cccc4cc(O)c1c2c34 = 1
2) Nc1cccc(-c2ccccc2[N+](=O)[O-])c1 = 1
3) O=[N+]([O-])c1c2c(c3ccc4cccc5ccc1c3c45)CCCC2O (stereo unspecified) = 1
4) O=[N+]([O-])c1ccc2c3c(c4c([N+](=O)[O-])ccc5ccc1c2c54)CCCC3 = 0
5) O=[N+]([O-])c1cc2c([N+](=O)[O-])ccc3c2c(c1[N+](=O)[O-])-c1ccccc1-3 = 1
6) O=[N+]([O-])c1cc2c3c(cc([N+](=O)[O-])c([N+](=O)[O-])c3c1)-c1ccccc1-2 = 1

Ask | Does the reported logP of O=[N+]([O-])c1ccc2c3ccccc3c3cccc4ccc1c2c43 stay below 5?
Reply | 0

Ask | Does the reported logP of Cc1nc2cc([N+](=O)[O-])ccc2[nH]1 stay below 5?
Reply | 1

Ask | Does the reported logP of Cn1ccc2cc([N+](=O)[O-])ccc21 stay below 5?
Reply | 1

Ask | Does the reported logP of O=[N+]([O-])c1ccc2c3c(c4cccc5ccc1c2c54)CCCC3 stay below 5?
Reply | 0

Ask | Does the reported logP of O=[N+]([O-])c1ccc(Cl)c(Cl)c1 stay below 5?
Reply | 1
